Test system: Escherichia coli
Experiment: Antibacterial activity against Escherichia coli MTCC 443 after 24 hrs by agar well diffusion method
Format: functional
Conditions: MTCC 443, 24 h
This section presents compounds with their documented MIC values.

| Compound | Unit Text | MIC |
| --- | --- | --- |
| COc1ccc(C2=NN(C(C)=O)C(c3ccc(NS(=O)(=O)c4cc(F)ccc4C)cc3)C2)cc1OC (stereo not drawn) | mg/L | 20 |
| COc1ccc(C2=NN(C(C)=O)C(c3ccc(NC(=O)Nc4ccccc4C(F)(F)F)cc3)C2)cc1OC (stereo not drawn) | mg/L | 60 |
| COc1ccc(C2=NN(C(C)=O)C(c3ccc(NC(=O)Nc4ccc(C(C)C)cc4)cc3)C2)cc1OC (stereo not drawn) | mg/L | 30 |
| COc1cccc(NC(=S)Nc2ccc(C3CC(c4ccc(OC)c(OC)c4)=NN3C(C)=O)cc2)c1 (stereo not drawn) | mg/L | 70 |
| COc1ccccc1NC(=S)Nc1ccc(C2CC(c3ccc(OC)c(OC)c3)=NN2C(C)=O)cc1 (stereo not drawn) | mg/L | 90 |
| COc1ccc(NC(=S)Nc2ccc(C3CC(c4ccc(OC)c(OC)c4)=NN3C(C)=O)cc2)cc1 (stereo not drawn) | mg/L | 20 |
| COc1ccc(C2=NN(C(C)=O)C(c3ccc(NS(=O)(=O)c4ccc(OC(F)(F)F)cc4)cc3)C2)cc1OC (stereo not drawn) | mg/L | 15 |
| COc1ccc(C2=NN(C(C)=O)C(c3ccc(NS(=O)(=O)c4ccc(C)cc4)cc3)C2)cc1OC (stereo not drawn) | mg/L | 75 |
